Target protein (sequence): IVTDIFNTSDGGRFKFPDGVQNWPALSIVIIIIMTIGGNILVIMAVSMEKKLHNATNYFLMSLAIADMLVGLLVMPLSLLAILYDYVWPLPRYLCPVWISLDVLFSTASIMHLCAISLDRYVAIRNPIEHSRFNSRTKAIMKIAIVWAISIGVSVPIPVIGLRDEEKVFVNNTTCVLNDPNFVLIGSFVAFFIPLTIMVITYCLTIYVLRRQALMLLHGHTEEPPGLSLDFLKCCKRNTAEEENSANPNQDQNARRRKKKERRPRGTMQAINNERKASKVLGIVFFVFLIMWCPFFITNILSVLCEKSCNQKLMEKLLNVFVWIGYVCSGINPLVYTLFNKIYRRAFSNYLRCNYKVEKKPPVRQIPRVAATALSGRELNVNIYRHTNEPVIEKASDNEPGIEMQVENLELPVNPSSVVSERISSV
pKi: −log10 of the molar value.
test.readout: pKi

{"molecule": "CN1CCc2c(c3cccc4c3n2Cc2ccccc2O4)C1 [Compound 13b]", "result.number": 6.61}
{"molecule": "CN1CCc2c(c3cccc4c3n2-c2ccccc2CC4)C1 [Compound 6a, reference compound]", "result.number": 8.00}
